# System: SW-620
# Measurement protocol: NCI tumour cell line growth inhibition, 48 h
Active and inactive are the calls of the source. Cut-off read from the data, not from the text of the source: active = GI50 up to about 1.1 µM and inactive = higher.
Could you please report measured GI50 for the items listed next?

> print(dat)
                                   compound  study.system             observed
1  COC(=O)c1c(-c2ccc(Cl)cc2)cc2c3ccccc3n(C)c2c1C(=O)OC        SW-620  > 100 µM (inactive)
2  CC(O)(C#N)CC(O)(C(F)(F)Cl)C(F)(F)Cl (stereo not drawn)        SW-620   > 10 µM (inactive)
3  Cc1n[nH]c(=S)n1/N=C/c1ccc(-c2ccc(Cl)cc2)o1        SW-620  > 100 µM (inactive)
4  O=C1Nc2ccc(S(=O)(=O)NCCO)cc2/C1=C1/Nc2ccccc2C1=O        SW-620   11.9 µM (inactive)

Hey, can you go through the list below and give me GI50 for every item?
1. COc1cc2c(c(OC)c1OC)-c1ccc(SC)c(=O)cc1C(CC(=O)Oc1ccc(F)cc1)C2 (stereo not drawn)
2. N#CC1=C(N)N(/N=C/c2ccccc2)C(c2ccccc2)C1(C#N)C#N (stereo not drawn)
3. Cc1cccc(C)c1NC(=O)CCCC(=O)C(C#N)c1ccccc1 (stereo not drawn)
4. O=C(CSC1=NCCN1)c1ccccc1
5. Cc1nc(-c2ccccc2)cc2c1c(=O)oc1ccccc12
6. O=C1C(Cl)=C(N2CCOCC2)C(=O)c2c(O)ccc(O)c21

Result block:
1. 0.0918 µM (active)
2. 5.18 µM (inactive)
3. > 100 µM (inactive)
4. > 100 µM (inactive)
5. > 100 µM (inactive)
6. 0.156 µM (active)

Hey, can you go through the list below and give me GI50 for every item?
1. O=C1CSC2(CC(/C=C/c3ccccc3Br)=NN2c2cccc(S(=O)(=O)O)c2)N1c1nc2ccccc2s1 (stereo not drawn)
2. CCNC(=O)Cc1nc2c(N)ncnc2n1C1OC(CO)C(O)C1O (stereo not drawn)
3. CCNCCC1(CC)C(=O)NC(=O)NC1=O

Result block:
> 100 µM (inactive)
> 100 µM (inactive)
> 100 µM (inactive)
